// reported ED50 per item
- System: electrically induced convulsions
- Test Details: Anticonvulsive Effect (supermaximum electroshock test in mice)
- Format: in vivo, mouse
- Measurement Context: Mus musculus, ip, 40 min, i.p., electroshock 40 min after application, estimated according to Litchfield and Wilcoxon, read-out: ED50

Some solved cases for reference:
{"Compound": "CCC12CC3CC(N)(C1)CC(CC)(C3)C2", "System Name": "electrically induced convulsions", "Measurement Label": "ED50", "Endpoint Value": "24 mg/kg"}
{"Compound": "CNC12CC3CC(C)(CC(C)(C3)C1)C2", "System Name": "electrically induced convulsions", "Measurement Label": "ED50", "Endpoint Value": "13 mg/kg"}
{"Compound": "CC12CC3CC(C)(C1)CC(N)(C3)C2", "System Name": "electrically induced convulsions", "Measurement Label": "ED50", "Endpoint Value": "16 mg/kg"}
{"Compound": "C[C@]12N[C@H](Cc3ccccc31)c1ccccc12 [MK-801, reference compound]", "System Name": "electrically induced convulsions", "Measurement Label": "ED50", "Endpoint Value": "< 1 mg/kg"}

Field: next compound
Task: Can you share its ED50? I mean this compound: "CCC12CC3CC(CC(N)(C3)C1)C2"
Output: 30 mg/kg

* * *

- System Name: NMDA receptor-associated ionic channel (PCP/TCP binding site)
- Test Details: Displacement of TCP Binding (3H-TCP, membrane preparation of rat cortex)
- Measurement Context: membrane preparation of rat cortex, competitive experiment
- Protocol: Phencyclidine (PCP), a known NMDA antagonist, binds to the NMDA receptor-associated ionic channel and blocks ionic transport (Garthwaite & Garthwaite, Neurosci. Lett. 83, 1987, 241-246). […] A membrane preparation of rat cortex is incubated with ^3 H-TCP which is an analogue of phencyclidine (PCP) (Quirion & Pert 1982, Eur. J. Pharmacol. 83:155). The interaction with the TCP binding is assessed for test compound no. […]
Measurement Label: IC50 (nM)
Unit nM implied. Number only.

Task: Given the entry "CC12CC3CC(C)(C1)CC(N)(C3)C2" , report its measured IC50.
Output: 89

* * *

- System Name: MK-801 binding site of the NMDA receptor channel
- Test Details: Displacement of [3H] MK-801 Binding in Human Brain Tissue (frontal cortex homogenates)
- Measurement Context: [3H] MK-801 (3 nM), mean of triplicate experiments
Measurement Label: pKi
// pKi here means minus log10 of the molar concentration (mol/L)

Some compounds with known pKi results, for comparison:
{"Smiles Input": "CC(C)C12CC3CC(CC(N)(C3)C1)C2", "Measurement Label": "pKi", "Endpoint Value": 6.22}
{"Smiles Input": "CCC12CC3CC(N)(C1)CC(CC)(C3)C2", "Measurement Label": "pKi", "Endpoint Value": 6.72}

# input for lookup
Task: Param readout= pKi; system= MK-801 binding site of the NMDA receptor channel; entry= "CNC12CC3CC(C)(CC(C)(C3)C1)C2" ; returns value.
Output: 5.79
